Below: a set of entries, each annotated with reported NanoBRET Fold Response.
Target: PTGDR2 (Homo sapiens)
Construct: purchased Promega (in-house HiBiT-GPCR construct library, NanoBRET)
Sequence (Q9Y5Y4 whole entry): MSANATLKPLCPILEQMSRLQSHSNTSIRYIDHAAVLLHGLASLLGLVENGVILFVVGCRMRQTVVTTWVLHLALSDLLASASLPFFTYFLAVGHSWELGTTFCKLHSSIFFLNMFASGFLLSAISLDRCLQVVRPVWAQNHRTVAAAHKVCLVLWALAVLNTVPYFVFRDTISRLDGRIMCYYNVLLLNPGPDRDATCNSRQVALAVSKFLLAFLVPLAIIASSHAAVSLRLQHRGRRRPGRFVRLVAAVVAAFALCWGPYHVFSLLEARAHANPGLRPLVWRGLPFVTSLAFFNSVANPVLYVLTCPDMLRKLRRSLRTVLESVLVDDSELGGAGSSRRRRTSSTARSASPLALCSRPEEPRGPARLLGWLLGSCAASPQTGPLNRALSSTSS
Assay: NanoBRET screen HiBiT-PTGDR2 in HEK293
Assay type: binding
Conditions: PTGDR2; tracer 0.1μM
Write no unit; give the number alone.

Briefly, NanoBRET Fold Response measured for CC(C)N(CC[C@H](c1ccccc1)c1cc(CCNC(=O)CCOCCOCCOCCOCCNC(=O)CCc2ccc3n2[B-](F)(F)[N+]2=C(c4ccc[nH]4)C=CC2=C3)ccc1O)C(C)C : 0.95

Record COc1ccccc1N1CCN(CCCCN2C(=O)c3ccc(CNC(=O)CCOCCNC(=O)c4ccc(CNC(=O)CCc5ccc6n5[B-](F)(F)[N+]5=C(c7ccc[nH]7)C=CC5=C6)cc4)cc3C2=O)CC1 . Reported NanoBRET Fold Response: 0.87

The reported NanoBRET Fold Response of the compound O=C(CCc1ccc2n1[B-](F)(F)[N+]1=C(c3ccc[nH]3)C=CC1=C2)NCc1ccc(C(=O)NCCOCCC(=O)N[C@@H]2CC[C@@]3(O)[C@H]4Cc5ccc(O)c6c5[C@@]3(CCN4CC3CC3)[C@H]2O6)cc1 [Naltrexone-3-NB590] was 0.98

The compound CC(C)N(CC[C@H](c1ccccc1)c1cc(CCNC(=O)c2ccc(CNC(=O)CCc3ccc4n3[B-](F)(F)[N+]3=C(c5ccc[nH]5)C=CC3=C4)cc2)ccc1O)C(C)C showed NanoBRET Fold Response equal to 0.98

response.value for CCCn1c(=O)c2[nH]c(-c3ccc(OCC(=O)NCCNC(=O)CCOCCNC(=O)c4ccc(CNC(=O)CCc5ccc6n5[B-](F)(F)[N+]5=C(c7ccc[nH]7)C=CC5=C6)cc4)cc3)nc2n(CCC)c1=O (field: NanoBRET Fold Response) = 1.00

Where do the numbers come from? From paper PMC8151276.
